ASSAY_SYSTEM: human αVβ6 (Homo sapiens, UniProt P06756+P18564)
Sequence (P06756 31-992 limits assumed): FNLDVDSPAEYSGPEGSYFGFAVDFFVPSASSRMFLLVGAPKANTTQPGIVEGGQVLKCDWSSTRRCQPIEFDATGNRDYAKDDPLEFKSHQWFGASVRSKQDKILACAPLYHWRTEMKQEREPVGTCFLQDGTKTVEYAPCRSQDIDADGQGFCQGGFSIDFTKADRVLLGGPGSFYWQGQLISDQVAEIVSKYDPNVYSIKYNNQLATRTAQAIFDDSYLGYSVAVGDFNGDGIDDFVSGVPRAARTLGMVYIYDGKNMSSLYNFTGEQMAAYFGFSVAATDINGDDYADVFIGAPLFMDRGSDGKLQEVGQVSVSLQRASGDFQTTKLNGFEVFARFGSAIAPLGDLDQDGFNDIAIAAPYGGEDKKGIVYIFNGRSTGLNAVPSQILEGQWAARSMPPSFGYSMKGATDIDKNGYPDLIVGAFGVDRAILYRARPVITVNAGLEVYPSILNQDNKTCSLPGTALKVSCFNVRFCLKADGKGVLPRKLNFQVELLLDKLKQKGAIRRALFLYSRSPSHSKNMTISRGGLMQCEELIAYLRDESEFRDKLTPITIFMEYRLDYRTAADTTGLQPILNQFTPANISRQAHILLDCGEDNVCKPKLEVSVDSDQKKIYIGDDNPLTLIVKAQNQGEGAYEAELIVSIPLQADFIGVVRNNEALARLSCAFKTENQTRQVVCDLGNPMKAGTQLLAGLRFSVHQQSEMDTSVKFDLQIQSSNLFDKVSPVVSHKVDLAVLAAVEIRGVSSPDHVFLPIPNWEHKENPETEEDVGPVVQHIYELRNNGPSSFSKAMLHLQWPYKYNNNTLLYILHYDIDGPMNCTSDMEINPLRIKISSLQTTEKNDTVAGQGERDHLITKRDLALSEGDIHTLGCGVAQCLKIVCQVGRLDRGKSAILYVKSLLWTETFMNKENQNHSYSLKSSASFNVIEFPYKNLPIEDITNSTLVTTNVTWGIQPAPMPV
Sequence (P18564 22-707 limits assumed): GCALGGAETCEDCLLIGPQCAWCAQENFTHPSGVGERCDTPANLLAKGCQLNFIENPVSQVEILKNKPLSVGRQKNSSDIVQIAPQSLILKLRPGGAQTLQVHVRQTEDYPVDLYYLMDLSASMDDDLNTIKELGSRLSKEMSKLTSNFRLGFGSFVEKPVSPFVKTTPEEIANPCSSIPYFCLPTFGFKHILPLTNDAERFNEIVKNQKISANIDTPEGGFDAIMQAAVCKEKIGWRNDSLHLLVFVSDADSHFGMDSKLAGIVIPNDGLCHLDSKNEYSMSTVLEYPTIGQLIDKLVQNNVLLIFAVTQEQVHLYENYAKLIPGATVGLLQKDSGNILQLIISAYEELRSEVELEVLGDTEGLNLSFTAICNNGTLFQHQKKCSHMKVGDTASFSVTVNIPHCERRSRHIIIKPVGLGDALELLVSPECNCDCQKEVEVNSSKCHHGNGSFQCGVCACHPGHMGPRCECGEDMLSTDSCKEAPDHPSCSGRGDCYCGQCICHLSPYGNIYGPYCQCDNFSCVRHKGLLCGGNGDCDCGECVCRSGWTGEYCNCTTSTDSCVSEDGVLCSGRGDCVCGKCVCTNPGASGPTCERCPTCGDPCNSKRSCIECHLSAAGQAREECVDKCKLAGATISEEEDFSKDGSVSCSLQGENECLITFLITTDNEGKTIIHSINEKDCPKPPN
ASSAY_COMMENT: human αVβ6 HTRF binding assay
CONDITION_DETAILS: recombinant human αVβ6 integrin, FITC-conjugated fibronectin
pIC50: −log10 of the molar value.
RESULT_TYPE: pIC50

The examples below pair each entry with its known result.
[in] Give the value of pIC50 reported for the following: COc1ncc([C@H](CC(=O)O)n2ccc(CCCc3ccc4c(n3)NCCC4)n2)cn1
[out] 8.07

[in] Give the value of pIC50 reported for the following: O=C(O)CC(c1ccc2c(c1)CCO2)n1ccc(CCCc2ccc3c(n2)NCCC3)n1 (racemic)
[out] 8.24

1: O=C(O)CC(c1ccc2nccnc2c1)c1nc(CCCCc2ccc3c(n2)NCCC3)cs1 (single isomer, unassigned) [Example 120]
2: O=C(O)CC(c1cccc(N2CCOCC2)c1)c1nc(CCCCc2ccc3c(n2)NCCC3)cs1 (single isomer, unassigned) [Example 126]
[in] Pick one, 1 or 2 : lowest reported pIC50. Please indicate the selected item by its label.
[out] 1

###

ASSAY_SYSTEM: human αVβ3 (Homo sapiens, UniProt P05106+P06756)
Sequence (P06756 31-992 limits assumed): as the sequence (P06756 31-992 limits assumed) above
Sequence (P05106 27-718 limits assumed): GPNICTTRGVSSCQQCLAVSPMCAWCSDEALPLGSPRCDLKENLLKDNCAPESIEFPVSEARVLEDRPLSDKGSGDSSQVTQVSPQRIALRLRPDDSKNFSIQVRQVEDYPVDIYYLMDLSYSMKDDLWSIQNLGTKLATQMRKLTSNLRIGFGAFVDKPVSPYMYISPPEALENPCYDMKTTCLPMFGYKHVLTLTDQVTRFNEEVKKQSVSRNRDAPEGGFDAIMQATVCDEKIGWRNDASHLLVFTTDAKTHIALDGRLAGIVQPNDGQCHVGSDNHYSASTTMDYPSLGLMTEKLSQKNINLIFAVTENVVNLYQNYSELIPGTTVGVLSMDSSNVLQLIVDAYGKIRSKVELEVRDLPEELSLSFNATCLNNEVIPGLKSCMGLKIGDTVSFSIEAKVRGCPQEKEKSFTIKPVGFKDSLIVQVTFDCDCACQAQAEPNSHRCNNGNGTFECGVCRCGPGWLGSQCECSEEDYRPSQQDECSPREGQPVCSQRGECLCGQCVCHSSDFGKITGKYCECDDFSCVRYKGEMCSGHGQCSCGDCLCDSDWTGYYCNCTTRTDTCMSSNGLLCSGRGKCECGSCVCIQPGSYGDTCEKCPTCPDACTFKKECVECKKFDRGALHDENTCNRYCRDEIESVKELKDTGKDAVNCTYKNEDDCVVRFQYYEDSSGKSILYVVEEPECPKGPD
ASSAY_COMMENT: human αVβ3 HTRF binding assay
Counter-ions that a name gives are not always drawn.
RESULT_TYPE: IC50 (nM)

P: COc1ccc(C(CC(=O)O)c2nc(CCCc3ccc4c(n3)NCCC4)cs2)cn1 (single isomer, unassigned)
Q: COc1ccc(C(CC(=O)O)n2ccc(-c3cccc(-c4ccc5c(n4)NCCC5)c3)n2)cn1 (racemic)
R: COc1cncc(C(CC(=O)O)n2ccc(CCCc3ccc4c(n3)NCCC4)n2)c1 (single isomer, unassigned) [Example 64]
S: CCOc1ncc(C(CC(=O)O)n2ccc(CCCc3ccc4c(n3)NCCC4)n2)cn1 (racemic)
[in] From the records above, write out the order of decreasing IC50. Form entry: ranked labels (order as requested).
[out] Q, R, S, P
(Q: 14 nM, R: 3.8 nM, S: 2.3 nM, P: 1.4 nM)

P: Cn1cc([C@H](CC(=O)O)n2ccc(CCCc3ccc4c(n3)NCCC4)n2)ccc1=O [Example 45, ditrifluoroacetic acid salt]
Q: COc1cncc(C(CC(=O)O)n2ccc(CCCc3ccc4c(n3)NCCC4)n2)c1 (single isomer, unassigned) [Example 65]
[in] Pick one, P or Q : lowest reported IC50. Please indicate the selected item by its label.
[out] P

A: COc1ccc(C(CC(=O)O)c2nc(CCCCc3ccc4c(n3)NCCC4)cs2)cn1 (single isomer, unassigned)
B: COc1cncc(C(CC(=O)O)n2nccc2CCCc2ccc3c(n2)NCCC3)c1 (single isomer, unassigned)
C: COc1ccc([C@H](CC(=O)O)N2CCC(CCCc3ccc4c(n3)NCCC4)C2)cn1 (stereo partly shown)
[in] Arrange these 3 compounds in increasing order of IC50. Form entry: ranked labels (order as requested).
[out] A, C, B

a: O=C(O)CC(c1cnc2ccccc2c1)n1ccc(CCCc2ccc3c(n2)NCCC3)n1 (racemic)
b: Cc1ncc([C@H](CC(=O)O)n2ccc(CCCc3ccc4c(n3)NCCC4)n2)cn1
[in] Between a and b , which one shows the larger IC50 value? Please indicate the selected item by its label.
[out] b

###

ASSAY_SYSTEM: human αVβ6 (Homo sapiens, UniProt P06756+P18564)
Construct: purchased R & D systems 3817-AV
ASSAY_COMMENT: human αVβ6 HTRF binding assay
CONDITION_DETAILS: recombinant human αVβ6 integrin, FITC-conjugated fibronectin
Description: All binding assays used the HTRF (homogeneous time resolved fluorescence) technology from Cisbio International, therefore all assays are described as HTRF binding assays. The assay results for the Examples are listed above together with the characterization data. The HTRF binding assays are established for the following integrins: human αVβ6, human αVβ1, human αVβ3, human αVβ5, and human αVβ8. […]
pIC50: −log10 of the molar value.
RESULT_TYPE: pIC50

[in] Give the value of pIC50 reported for the following: COc1ccc(C(CC(=O)O)n2ncc(CCCc3ccc4c(n3)NCCC4)n2)cc1F (single isomer, unassigned) [Example 173]
[out] 8.52

[in] Give the value of pIC50 reported for the following: COc1ccc(C(CC(=O)O)n2ncc(CCCc3ccc4c(n3)NCCC4)n2)cn1 (single isomer, unassigned) [Example 171]
[out] 7.57

[in] Give the value of pIC50 reported for the following: COc1ccc(C(CC(=O)O)c2nc(CCCCc3ccc4c(n3)NCCC4)cn2C)cc1F (single isomer, unassigned) [Example 168]
[out] 7.04

[in] Give the value of pIC50 reported for the following: COc1ccc(C(CC(=O)O)c2nc(CCCC3CCc4cccnc4N3)cs2)cc1F (single isomer, unassigned) [Example 159]
[out] 6.43

[in] Give the value of pIC50 reported for the following: COc1ccc(C(CC(=O)O)c2cc(CCCc3ccc4c(n3)NCCC4)c[nH]2)cc1F (racemic) [Example 10]
[out] 6.87

1: O=C(O)CC(c1cc(Cl)cc(Cl)c1)c1cnn(CCCc2ccc3c(n2)NCCC3)c1 (racemic) [Example 26]
2: CN(C)C(=O)c1cccc(C(CC(=O)O)c2nc(CCCCc3ccc4c(n3)NCCC4)cs2)c1 (single isomer, unassigned) [Example 118]
3: CN(C)C(=O)c1cccc(C(CC(=O)O)c2nc(CCCCc3ccc4c(n3)NCCC4)cs2)c1 (single isomer, unassigned) [Example 117]
4: CN(C)C(=O)c1ccc(C(CC(=O)O)c2nc(CCCc3ccc4c(n3)NCCC4)cs2)cc1F (single isomer, unassigned) [Example 135]
5: Cc1ncc(C(CC(=O)O)n2ccc(CCCc3ccc4c(n3)NCCCC4)n2)cn1 (centres unmarked) [Example 98]
[in] Ordering criterion: pIC50; begin with the maximum. Form entry: ranked labels (order as requested).
[out] 2, 4, 1, 3, 5
(2: 8.72, 4: 8.31, 1: 7.57, 3: 7.12, 5: 6.23)
